- TEST SYSTEM: hPARG4 (hPARG(448–976)) (Homo sapiens, UniProt Q86W56)
- Construct: a codon optimized gene encoding human PARG(448–976) was synthesized by GeneArt; 6His (TEV-cleavable) (N, cleaved yes); made in house; host or cells: E. coli BL21 (DE3) GOLD
- Sequence (Q86W56 448-976): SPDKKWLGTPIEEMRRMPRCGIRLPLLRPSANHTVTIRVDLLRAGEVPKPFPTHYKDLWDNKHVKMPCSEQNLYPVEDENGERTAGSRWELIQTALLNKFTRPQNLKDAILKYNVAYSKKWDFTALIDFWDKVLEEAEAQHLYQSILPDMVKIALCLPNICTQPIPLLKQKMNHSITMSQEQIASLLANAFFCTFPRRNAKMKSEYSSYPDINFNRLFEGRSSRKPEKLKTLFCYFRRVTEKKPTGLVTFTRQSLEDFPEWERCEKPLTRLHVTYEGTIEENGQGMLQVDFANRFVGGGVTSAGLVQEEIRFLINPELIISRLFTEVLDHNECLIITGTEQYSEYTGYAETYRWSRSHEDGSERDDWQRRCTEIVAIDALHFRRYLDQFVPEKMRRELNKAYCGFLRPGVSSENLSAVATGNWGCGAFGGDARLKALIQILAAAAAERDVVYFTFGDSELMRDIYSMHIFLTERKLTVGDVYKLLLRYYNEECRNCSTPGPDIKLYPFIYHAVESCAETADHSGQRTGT
- METHOD NOTES: Isothermal titration calorimetry
- Assay type: binding
- CONDITION INFO: 25°C, read-out: KD (ITC)
pKd by entry:
Note: pKd values are expressed as the negative base-10 logarithm of concentration in M.

Lab note: measured pKd of CCCCCCCCNc1nc2c(N)ncnc2n1[C@@H]1O[C@H](COP(=O)(O)OP(=O)(O)OC[C@H]2NC[C@H](O)[C@@H]2O)[C@@H](O)[C@H]1O was 6.10

Here is the next item to consider.
Lab note: measured pKd of Nc1ncnc2c1ncn2C1OC(COP(=O)(O)OP(=O)(O)OCC2NCC(O)C2O)C(O)C1O (centres unmarked) was 6.88

* * *

- TEST SYSTEM: hPARG4 (hPARG(448–976)) (Homo sapiens, UniProt Q86W56)
- Construct: a codon optimized gene encoding human PARG(448–976) was synthesized by GeneArt; 6His (TEV-cleavable) (N, cleaved yes); made in house; host or cells: E. coli BL21 (DE3) GOLD
- METHOD NOTES: SPR binding to immobilised PARG, steady state fits
- CONDITION INFO: 25°C, steady state fit
PARAMETER MEASURED: Kd (nM)
// note: answer is a bare numeric in nM

Lab note: measured Kd of Nc1ncnc2c1ncn2C1OC(COP(=O)(O)OP(=O)(O)OCC2NCC(O)C2O)C(O)C1O (stereo not shown) [ADP-HPD] was 64.3

* * *

- TEST SYSTEM: hPARG4 (Homo sapiens, UniProt Q86W56)
- Construct: a codon optimized gene encoding human PARG(448–976) was synthesized by GeneArt; 6His (TEV-cleavable) (N, cleaved yes); made in house; host or cells: E. coli BL21 (DE3) GOLD
- Sequence (Q86W56 448-976): as the sequence (Q86W56 448-976) above
- METHOD NOTES: SPR competition experiments against saturating ADP-HPD
- Assay type: binding
- CONDITION INFO: hPARG4-ADP-HPD complex formed in situ, increasing concentrations of compound; data not shown; read-out: KD (SPR competition)
PARAMETER MEASURED: Kd

Lab note: measured Kd of Nc1ncnc2c1ncn2C1OC(COP(=O)(O)OP(=O)(O)OCC2OC(O)C(O)C2O)C(O)C1O (stereo not shown) was ~40 µM

* * *

- TEST SYSTEM: hPARG26 (hPARG(448–976 [K616A, Q617A, K618A, E688A, K689A & K690A])) (Homo sapiens, UniProt Q86W56, E688A/K616A/K618A/K689A/K690A/Q617A)
- Construct: a codon optimized gene encoding human PARG(448–976 [K616A, Q617A, K618A, E688A, K689A, K690A]); 6His (TEV-cleavable) (N, cleaved yes)
- Sequence (Q86W56 448-976 K616A/Q617A/K618A/E688A/K689A/K690A): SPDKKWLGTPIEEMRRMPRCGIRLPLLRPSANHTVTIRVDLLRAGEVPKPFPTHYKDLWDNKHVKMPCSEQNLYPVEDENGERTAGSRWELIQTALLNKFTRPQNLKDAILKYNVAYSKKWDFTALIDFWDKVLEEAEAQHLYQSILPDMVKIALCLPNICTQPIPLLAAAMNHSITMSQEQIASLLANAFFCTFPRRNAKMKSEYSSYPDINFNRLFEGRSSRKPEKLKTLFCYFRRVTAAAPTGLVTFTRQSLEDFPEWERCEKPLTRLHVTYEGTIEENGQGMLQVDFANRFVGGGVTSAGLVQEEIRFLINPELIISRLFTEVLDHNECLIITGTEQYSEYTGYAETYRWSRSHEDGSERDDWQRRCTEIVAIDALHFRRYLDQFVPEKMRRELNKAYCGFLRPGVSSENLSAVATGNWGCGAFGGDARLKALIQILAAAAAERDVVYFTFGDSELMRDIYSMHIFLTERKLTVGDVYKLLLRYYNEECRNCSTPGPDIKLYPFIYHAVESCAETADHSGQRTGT
- METHOD NOTES: PARG activity HTRF assay (PAR-PARP1 hydrolysis)
- CONDITION INFO: 9 µL HTRF
PARAMETER MEASURED: IC50
Form entry: enter the amount, then its unit.

Lab note: measured IC50 of Nc1ncnc2c1ncn2C1OC(COP(=O)(O)OP(=O)(O)OCC2NCC(O)C2O)C(O)C1O (stereo not shown) was 1100 nM
